Numbers sourced from patent US20150004189A1.

- tgt: T1, HLA DQ molecule DQB1*0402 (human), P01909
- T1 chain 1: not shown
- T1 chain 2: not shown
- assay-protocol: inhibition of radiolabeled peptide binding to purified HLA class II
measured-attribute: IC50
Please answer using a numeric value trailed by its unit.

What the record says about GIFLSVAAGNEAENA (modifications not checked) [Pen ch 13 (271-285) peptide …, Peptide ID 3324.1303] : IC50 is 102 nM
